Target: T1, GLP-1R in the INS1e assay (UniProt P32301 22-463, limits assumed)
T1 sequence (looked up): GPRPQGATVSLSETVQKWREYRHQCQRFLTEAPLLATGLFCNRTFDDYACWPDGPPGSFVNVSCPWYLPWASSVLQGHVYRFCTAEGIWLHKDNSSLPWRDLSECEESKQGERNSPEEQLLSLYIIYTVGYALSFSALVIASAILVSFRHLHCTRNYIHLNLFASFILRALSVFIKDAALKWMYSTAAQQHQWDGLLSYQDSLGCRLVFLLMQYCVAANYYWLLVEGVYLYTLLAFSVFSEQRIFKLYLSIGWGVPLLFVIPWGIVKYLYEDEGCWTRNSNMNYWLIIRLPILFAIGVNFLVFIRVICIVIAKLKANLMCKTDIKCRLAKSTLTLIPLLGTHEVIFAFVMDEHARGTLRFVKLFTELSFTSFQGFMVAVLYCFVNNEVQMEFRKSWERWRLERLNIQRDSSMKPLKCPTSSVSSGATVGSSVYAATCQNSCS
Assay: cell-based or functional assay
Starred links: 1 amine or outer side, 2 acyl side, 3 side chain; linkers in the order of their positions; H or OH if unused. Non-standard residues stand in square brackets, D forms with d. Groups on a side chain read outwards from the residue. Primed or numbered codes have the meaning given here. No end group written: not given here. *: point of attachment. γGlu = O=C(O)[C@H](CCC(=O)[*:2])N[*:1]; αMeF = C[C@](N)(Cc1ccccc1)C(=O)O; αMeK = C[C@](N)(CCCCN)C(=O)O; Lauroyl = CCCCCCCCCCCC(=O)*; αMeS = C[C@](N)(CO)C(=O)O; PEG2′ = not defined here; Aib = CC(C)(N)C(=O)O
assay endpoint: INS1e assay EC50 (cAMP) Mean (nM)
Express the result in nM but write the number alone.

Kindly indicate its recorded INS1e assay EC50 (cAMP) Mean. Item: H[Aib]EGTFTSDVSK([PEG2′-PEG2′-γGlu-Lauroyl])FLEGEAAEEFIK([PEG2′-PEG2′-γGlu-Lauroyl])WVVEGG-NH2 [SEQ ID NO: 237]
19.3

Identify the reported INS1e assay EC50 (cAMP) Mean for the following entry. H[Aib]EGS[αMeF]TSDV[αMeS]SK([PEG2′-PEG2′-γGlu-Lauroyl])LEGEAA[αMeK]EFIK([PEG2′-PEG2′-γGlu-Lauroyl])WVVEGG-NH2 [SEQ ID NO: 262]
0.552
